Data origin, for the record: PubChem BioAssay (NCI)

Tested on: OVCAR-3 ovarian
Assay: NCI tumour cell line growth inhibition, 48 h
Please assign a class to every record based on measured TGI, with ranges lower level = under 9 µM, middle level = from 9 µM up to 30 µM, upper level = 30 µM and over

Consider the worked cases shown below.
compound | experimental.target | group.label
Cc1c2c(n(Cc3ccccn3)c1C)NN=C(C#N)S2(=O)=O | OVCAR-3 ovarian | upper level
COc1ccc(/C=C/C(=O)N[C@@H]2C(=O)N3[C@@H]2SC(C)(C)[C@@H]3C(=O)O)cc1 | OVCAR-3 ovarian | upper level
CC1C=CC(=O)C(n2cc(F)c(=O)[nH]c2=O)O1 (stereo unspecified) | OVCAR-3 ovarian | upper level
CC(C)NC(=O)OCc1c(COC(=O)NC(C)C)n(C)c2c1ccc1ccccc12 | OVCAR-3 ovarian | middle level
CC(C)=CC(=O)Cc1nc2cc(C)c(C)cc2[nH]c1=O | OVCAR-3 ovarian | upper level
C1=Cc2nc1c(-c1ccncc1)c1ccc([n-]1)c(-c1ccncc1)c1nc(c(-c3ccncc3)c3ccc([n-]3)c2-c2ccncc2)C=C1.[Zn+2] | OVCAR-3 ovarian | upper level
COc1cccc(N2C(=O)CSC2c2cc(OC)c(OC)c(OC)c2)c1 (stereo unspecified) | OVCAR-3 ovarian | upper level
CC1=C(C(=O)Nc2ccc(Cl)c(Cl)c2)C(c2ccco2)C(C(=O)Nc2ccc(Cl)c(Cl)c2)=C(C)N1 | OVCAR-3 ovarian | middle level
CCC(C)C(NC(=O)C1CCCN1C(=O)C(NC(=O)C(C)N)C(C)C)C(N)=O (stereo unspecified) | OVCAR-3 ovarian | upper level
COc1ccc(NC(=O)c2sc3nc(C)c(C(O)c4ccccc4)cc3c2N)cc1 (stereo unspecified) | OVCAR-3 ovarian | middle level

Moving on to another compound below.
# classify by TGI band: CC(C)NCC(O)c1ccc(OCc2ccccc2)c(OCc2ccccc2)c1-c1ccccc1 (stereo unspecified)
lower level

====

Test system: NCI-H226 lung
Assay: NCI tumour cell line growth inhibition, 48 h
measured.parameter: TGI (µM)
Write the answer as a number in µM, unit excluded.

compound | observed.result
COC(=O)CCC/C=C\C[C@H]1C=CC(=O)/C1=C/C[C@@H](O)C/C=C\CC(F)(F)F | 4.1
CC(C)OP(=O)(OC(C)C)C(=Nc1ccccc1)NNc1ccc([N+](=O)[O-])cc1 | 84.9
CCCCn1c2c(n(CCCC)c1=S)-c1c(n(CCCC)c(=S)n1CCCC)SSSS2 | 80.8
COc1ccc2c(c1)CCC1C2CC[C@]2(C)/C(=N/OC(=O)Cc3ccccc3)CCC12 (stereo not given in full) | 36.5

Could you now look at the following compound, please?
GET /values?readout=TGI&item= COc1ccc(/C=C/c2n[nH]c3ccc(N4CCOC4=O)cc23)cc1
15.4

====

Test system: HOP-62 NSCLC
Experiment: NCI tumour cell line growth inhibition, 48 h
measured.parameter: TGI

GET /values?readout=TGI&item= CCOP(=O)(C=C=C(C)C)OCC
> 100 µM

GET /values?readout=TGI&item= COc1cc([C@@H]2c3[nH]c4ccccc4c3C(Nc3ccc([N+](=O)[O-])cc3)[C@H]3COC(=O)N23)cc(OC)c1O (some centres not stated)
0.302 µM

GET /values?readout=TGI&item= NCCNC(=S)S
> 100 µM
